- tgt: feline FcRn complex (FcRn-α subunit and β-microglobulin) (feline)
- test.method.notes: SPR (Biacore), FcRn on SA chip, pH 7.4
experimental.endpoint: pKd
Please treat pKd as minus the base-10 logarithm of the molar concentration.

binder: feline IgG1a mutant ID No. 288: S252Y, S428Y, D312P, S434Y (antibody, part only; not given: Variable domains, not shown: another chain or arm of the molecule) constant: ASTTAPSVFPLAPSCGTTSGATVALACLVLGYFPEPVTVSWNSGALTSGVHTFPAVLQASGLYSLSSMVTVPSSRWLSDTFTCNVAHPPSNTKVDKTVRKTDHPPGPKPCDCPKCPPPEMLGGPSIFIFPPKPKDTLYISRTPEVTCLVVDLGPDDSDVQITWFVDNTQVYTAKTSPREEQFNSTYRVVSVLPILHQPWLKGKEFKCKVNSKSLPSPIERTISKAKGQPHEPQVYVLPPAQEELSRNKVSVTCLIKSFHPPDIAVEWEITGQPEPENNYRTTPPQLDSDGTYFVYSKLSVDRSHWQRGNTYTCSVYHEALHYHHTQKSLTQSPGK
pKd: 8.49

Asked: Supply reported pKd belonging to this binder: feline IgG1a mutant ID No. 271: S252F, S434Y, Q311W (antibody, part only; not given: Variable domains, not shown: another chain or arm of the molecule) constant: ASTTAPSVFPLAPSCGTTSGATVALACLVLGYFPEPVTVSWNSGALTSGVHTFPAVLQASGLYSLSSMVTVPSSRWLSDTFTCNVAHPPSNTKVDKTVRKTDHPPGPKPCDCPKCPPPEMLGGPSIFIFPPKPKDTLFISRTPEVTCLVVDLGPDDSDVQITWFVDNTQVYTAKTSPREEQFNSTYRVVSVLPILHWDWLKGKEFKCKVNSKSLPSPIERTISKAKGQPHEPQVYVLPPAQEELSRNKVSVTCLIKSFHPPDIAVEWEITGQPEPENNYRTTPPQLDSDGTYFVYSKLSVDRSHWQRGNTYTCSVSHEALHYHHTQKSLTQSPGK
Given back: 8.21
